Assay Target: Stromelysin-1 (Homo sapiens)
Sequence (P08254 whole entry): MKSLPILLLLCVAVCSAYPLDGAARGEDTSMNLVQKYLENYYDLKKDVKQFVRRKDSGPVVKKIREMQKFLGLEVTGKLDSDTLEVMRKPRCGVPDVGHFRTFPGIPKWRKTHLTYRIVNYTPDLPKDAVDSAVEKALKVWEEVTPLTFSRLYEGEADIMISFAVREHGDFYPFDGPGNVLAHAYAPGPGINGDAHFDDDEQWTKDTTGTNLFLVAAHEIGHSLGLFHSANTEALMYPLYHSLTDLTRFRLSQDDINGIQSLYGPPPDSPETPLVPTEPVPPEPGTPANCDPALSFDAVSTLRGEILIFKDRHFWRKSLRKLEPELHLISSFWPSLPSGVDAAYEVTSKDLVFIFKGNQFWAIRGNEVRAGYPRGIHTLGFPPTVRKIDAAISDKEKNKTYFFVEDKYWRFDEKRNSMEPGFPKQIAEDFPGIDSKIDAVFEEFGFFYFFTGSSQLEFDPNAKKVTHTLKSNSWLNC
Assay Procedure: Inhibition of human matrix metalloprotease-3
Observation Type: IC50
Report as: number unit

CNC(=O)[C@H](Cc1c[nH]c2ccccc12)NC(=O)[C@@H](CC(=O)NO)CC(C)C; 0.191 nM
CNC(=O)C(Cc1c(CCN(C)C)[nH]c2ccccc12)NC(=O)/C(=C/C(C)C)CC(=O)NO (stereo not given); 665 nM

Lab note: next molecule to report on.
Prompt: Query IC50 on Stromelysin-1 (Homo sapiens) for CCOC(=O)[C@H](Cc1c[nH]c2ccccc12)NC(=O)/C(=C/C(C)C)CC(=O)NO
Response: 2340 nM

###

// values below are reported pIC50
Assay Target: UniProt P08253
Sequence (P08253 whole entry): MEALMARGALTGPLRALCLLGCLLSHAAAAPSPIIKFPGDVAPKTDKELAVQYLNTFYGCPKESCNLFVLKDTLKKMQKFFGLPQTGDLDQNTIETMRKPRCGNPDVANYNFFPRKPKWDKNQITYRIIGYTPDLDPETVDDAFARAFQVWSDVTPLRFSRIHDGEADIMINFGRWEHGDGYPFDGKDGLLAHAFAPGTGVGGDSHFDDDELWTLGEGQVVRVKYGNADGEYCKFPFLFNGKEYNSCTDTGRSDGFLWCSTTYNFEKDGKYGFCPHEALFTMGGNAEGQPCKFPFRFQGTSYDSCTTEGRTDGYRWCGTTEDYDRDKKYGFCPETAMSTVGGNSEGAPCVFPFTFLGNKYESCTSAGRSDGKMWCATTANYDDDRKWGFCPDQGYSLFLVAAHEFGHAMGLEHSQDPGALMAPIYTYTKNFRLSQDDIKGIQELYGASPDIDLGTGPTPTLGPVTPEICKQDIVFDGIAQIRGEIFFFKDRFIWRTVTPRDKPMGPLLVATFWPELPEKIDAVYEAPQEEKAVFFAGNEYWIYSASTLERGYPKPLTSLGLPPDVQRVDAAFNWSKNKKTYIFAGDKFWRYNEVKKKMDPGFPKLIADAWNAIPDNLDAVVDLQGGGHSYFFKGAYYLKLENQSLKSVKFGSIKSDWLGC
Assay Procedure: Inhibition of human matrix metalloprotease-2
# reply with the number alone; pIC50 is -log10 of concentration in mol/L

CCOC(=O)[C@H](Cc1c[nH]c2ccccc12)NC(=O)/C(=C/C(C)C)CC(=O)NO; 8.22

Next:
Prompt: Suppose we examine the compound CNC(=O)C(Cc1c(CCN(C)C)[nH]c2ccccc12)NC(=O)/C(=C/C(C)C)CC(=O)NO (centres undefined) ; what pIC50 value has been reported?
Response: 8.24
